Recorded endpoint: melting point

> print(dat)
                                    compound  observed.result
 1                O=C(O)C1(c2ccc(Cl)cc2)CCC1      80 to 90 °C
 2       NC(=S)Nc1cc(C(F)(F)F)cc(C(F)(F)F)c1    166 to 168 °C
 3                      Cc1[nH]c2ccccc2c1C#N    212 to 213 °C
 4                    O=S(=O)(Cl)Cc1ccccc1Cl      60 to 62 °C
 5                 COc1cc([N+](=O)[O-])ccc1O     99 to 104 °C
 6  O=C(O)C1CCCNC1 (configuration not stated)    246 to 253 °C
 7  COc1cccc(C(=O)NN(C(=O)c2cc(C)cc(C)c2)C(C)(C)C)c1C           204 °C
 8                    NCCc1ccc(-c2ccccc2)cc1      53 to 55 °C
 9                O=C(O)c1cc(-c2cccs2)[nH]n1    229 to 232 °C
10                           CC(C)=CCNC(=N)N          62.5 °C
11  O=[N+]([O-])c1ccc(/C=C\c2ccccc2[N+](=O)[O-])cc1    138 to 139 °C
12                     O=C1c2ccccc2C(=O)N1CO           144 °C
13  N#CC(Cc1ccc([N+](=O)[O-])cc1)c1ccccc1 (configuration not stated)           134 °C
14  CCOC(=O)c1c(C)oc(NC(=O)Nc2ccc(Cl)cc2)c1C(=O)OCC    169 to 170 °C
15                          N#Cc1ccc2occc2c1      84 to 86 °C
16                   COC(=O)CC[C@H](N)C(=O)O           182 °C
17                    CCc1ccc2cc3ccccc3cc2c1           152 °C
